The entries below come with measured inhibition values attached.
target-or-system: Fatty-acid amide hydrolase 1 (Rattus norvegicus) (UniProt P97612)
Sequence (P97612 whole entry): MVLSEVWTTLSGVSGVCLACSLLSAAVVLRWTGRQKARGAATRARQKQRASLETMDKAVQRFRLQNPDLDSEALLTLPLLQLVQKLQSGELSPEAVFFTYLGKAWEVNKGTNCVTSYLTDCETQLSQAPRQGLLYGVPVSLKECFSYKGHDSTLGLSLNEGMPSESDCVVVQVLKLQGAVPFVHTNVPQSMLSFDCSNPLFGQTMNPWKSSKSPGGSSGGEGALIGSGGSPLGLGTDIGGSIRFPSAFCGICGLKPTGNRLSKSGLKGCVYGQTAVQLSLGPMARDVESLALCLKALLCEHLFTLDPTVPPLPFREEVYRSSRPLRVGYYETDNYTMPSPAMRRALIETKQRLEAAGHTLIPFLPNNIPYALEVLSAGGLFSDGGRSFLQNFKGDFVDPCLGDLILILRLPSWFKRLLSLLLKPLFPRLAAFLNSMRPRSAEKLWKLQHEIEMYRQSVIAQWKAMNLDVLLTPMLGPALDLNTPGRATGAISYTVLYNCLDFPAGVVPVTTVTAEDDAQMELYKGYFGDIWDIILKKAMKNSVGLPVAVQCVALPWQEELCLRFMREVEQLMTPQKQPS
experiment-summary: Inhibition of FAAH in Wistar rat cerebral membrane at 0.1 uM by liquid scintillation counting
Type: cell membranes

[
  {
    "smi": "CCCCNC(=O)Oc1ccc([N+](=O)[O-])cc1",
    "target-or-system": "Fatty-acid amide hydrolase 1 (Rattus norvegicus) (UniProt P97612)",
    "inhibition": "16%"
  },
  {
    "smi": "O=C(NC1CCCCC1)Oc1ccc([N+](=O)[O-])cc1",
    "target-or-system": "Fatty-acid amide hydrolase 1 (Rattus norvegicus) (UniProt P97612)",
    "inhibition": "25%"
  },
  {
    "smi": "CCCCCCNC(=O)Nc1ccc(-c2csnn2)cc1",
    "target-or-system": "Fatty-acid amide hydrolase 1 (Rattus norvegicus) (UniProt P97612)",
    "inhibition": "9%"
  },
  {
    "smi": "CCCCNC(=O)Oc1ccc(C#N)cc1",
    "target-or-system": "Fatty-acid amide hydrolase 1 (Rattus norvegicus) (UniProt P97612)",
    "inhibition": "25%"
  },
  {
    "smi": "CCCCCCNC(=O)Oc1c(C(C)(C)C)cc(C(=O)OC)cc1C(C)(C)C",
    "target-or-system": "Fatty-acid amide hydrolase 1 (Rattus norvegicus) (UniProt P97612)",
    "inhibition": "4%"
  },
  {
    "smi": "CCCCCCNC(=O)Oc1ccc(C)cc1",
    "target-or-system": "Fatty-acid amide hydrolase 1 (Rattus norvegicus) (UniProt P97612)",
    "inhibition": "27%"
  },
  {
    "smi": "O=C(Nc1ccc([N+](=O)[O-])cc1)OC1CCCCC1",
    "target-or-system": "Fatty-acid amide hydrolase 1 (Rattus norvegicus) (UniProt P97612)",
    "inhibition": "9%"
  },
  {
    "smi": "CCCCNC(=O)Oc1ccc(C(=O)OC)cc1",
    "target-or-system": "Fatty-acid amide hydrolase 1 (Rattus norvegicus) (UniProt P97612)",
    "inhibition": "35%"
  },
  {
    "smi": "CCCCNC(=O)Oc1ccc(OC)cc1",
    "target-or-system": "Fatty-acid amide hydrolase 1 (Rattus norvegicus) (UniProt P97612)",
    "inhibition": "5%"
  },
  {
    "smi": "COC(=O)c1ccc(OC(=O)NC2CCCCC2)cc1",
    "target-or-system": "Fatty-acid amide hydrolase 1 (Rattus norvegicus) (UniProt P97612)",
    "inhibition": "41%"
  }
]
